- system-name: cIAP-1 BIR-3 (Homo sapiens, UniProt Q13490)
- Sequence (Q13490 266-352 limits assumed): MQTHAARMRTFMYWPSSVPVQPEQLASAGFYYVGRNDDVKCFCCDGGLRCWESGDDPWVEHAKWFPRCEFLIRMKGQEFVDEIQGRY
- method-summary: Fluorescence polarization binding affinity to cIAP-1 BIR-3 (competition with AbuRPF-K(5-Fam)-NH2)
- setup-conditions: 5 nM labeled peptide, 40 nM BIR3, 15 min at RT, pH 7.5; reported as ranges; read-out: KD (c-IAP-1 BIR3)
metric-name: Kd

Previously resolved entries follow.
1. CN[C@@H](C)C(=O)N[C@H](C(=O)N1CC[C@@H]2[C@H]1[C@@H](c1c[nH]c3cc(F)ccc13)CN2c1ncccn1)C(C)C | < 100 nM
2. CN[C@@H](C)C(=O)N[C@H](C(=O)N1CC[C@@H]2[C@H]1[C@@H](c1c[nH]c3cc(F)ccc13)CN2C1CCN(C)CC1)C1CCCCC1 | < 100 nM
3. CN[C@@H](C)C(=O)N[C@H](C(=O)N1CC[C@@H]2[C@H]1[C@@H](c1c[nH]c3cc(F)ccc13)CN2C(=O)OC)C1CCCCC1 | < 100 nM
4. CN[C@@H](C)C(=O)N[C@H](C(=O)N1CC[C@@H]2[C@H]1[C@@H](c1c[nH]c3cc(F)ccc13)CN2C)C1CCCCC1 | < 100 nM
5. CN[C@@H](C)C(=O)N[C@H](C(=O)N1CC[C@@H]2[C@H]1[C@@H](c1c[nH]c3cc(F)ccc13)CN2Cc1cccnc1)C1CCCCC1 | < 100 nM

Task: Look up and report measured Kd for this entry: CN[C@@H](C)C(=O)N[C@H](C(=O)N1CC[C@@H]2[C@H]1[C@@H](c1c[nH]c3cc(F)ccc13)CN2S(C)(=O)=O)C(C)O (stereo partly drawn)
Output: < 100 nM

Task: Consider the molecule `CC[C@H](NC(=O)[C@H](C)NC)C(=O)N1CC[C@@H]2[C@H]1[C@@H](c1c[nH]c3cc(F)ccc13)CN2C1CCCC1` and give its recorded Kd.
Output: 100 to 1000 nM

Task: Report measured Kd; entry is CNC(C)C(=O)NC(C(=O)N1CC(c2c[nH]c3cc(F)ccc23)C2C1CCN2C(=O)C(NC(=O)C(C)NC)C1CCCCC1)C1CCCCC1 (stereo not drawn)
Output: < 100 nM

Task: For the molecule `CN[C@@H](C)C(=O)N[C@H](C(=O)N1CC[C@@H]2[C@H]1CCN2C(=O)OCc1ccccc1)C1CCCCC1` , give its measured Kd value.
Output: < 100 nM

This collection of values is drawn from patent US8399683B2.
